Each recorded value in this set is attributed to patent EP0540143B1.

- System: HIV(II) virus
- assay_remarks: Test B (XTT), MT4 cells infected with HIV(II)
- Type: cell-based
- test_conditions: Human immunodeficiency virus 1, MT4, Test B; 1 µg/ml
Classify as follows. Reported inhibition at 1 µg/mL greater than or equal to 90%: True. Reported inhibition at 1 µg/mL below: False.

{"item_smiles": "Cc1nc(NC(=S)NCCc2ccccc2)sc1C", "category": "True"}
{"item_smiles": "CCOc1ccccc1CCNC(=S)Nc1nccs1", "category": "True"}
{"item_smiles": "S=C(NCCc1ccccc1)Nc1nc2ccccc2s1", "category": "True"}
{"item_smiles": "Cc1ccnc(NC(=S)NCCc2ccccc2)n1", "category": "False"}
{"item_smiles": "S=C(NCCc1ccccc1)Nc1nncs1", "category": "True"}
{"item_smiles": "S=C(NCCc1ccccc1)Nc1nc2c(Cl)cccc2s1", "category": "False"}
{"item_smiles": "S=C(NCCc1ccccc1)Nc1nc2ccc(Cl)cc2s1", "category": "False"}
{"item_smiles": "Fc1ccc2nc(NC(=S)NCCc3ccccc3)sc2c1", "category": "False"}
{"item_smiles": "FC(F)(F)c1csc(NC(=S)NCCc2ccccc2)n1", "category": "True"}
